Where do these numbers come from? They come from patent US11517532B2.

# assayText: Lonafarnib serum concentration in HDV patients, Example 3
# Type: in vivo, human
# condition: human, serum, po, Group 4 (Patients 7-8): lonafarnib 150 mg QD + ritonavir 100 mg QD, oral; read-out: LNF Serum Concentration at Week 6
attributeMeasured: concentration at 6 weeks (ng/mL)
Expressed in ng/mL, but write only the number.

input: Which measured concentration at 6 weeks value corresponds to NC(=O)N1CCC(CC(=O)N2CCC([C@H]3c4ncc(Br)cc4CCc4cc(Cl)cc(Br)c43)CC2)CC1 ?
output: 1840
